- System: HCT-15
- method.description: NCI DTP cell line screen (SRB), Colon Cancer
- Assay type: cell-based
- measurement.conditions: read-out: LC50 (the source's name)
property.measured: CC50 (µM)
Report the value in µM with no unit label.

CC50 for N=C(N)Nc1ccc(-n2nc(C(F)(F)F)cc2-c2ccc3c(ccc4ccccc43)c2)cc1 [Compound 71] is 5.36

###

- System: T-47D
- method.description: NCI DTP cell line screen (SRB), Breast Cancer
- Format: cell-based
- measurement.conditions: read-out: LC50 (the source's name)
property.measured: CC50
Write the quantity with the unit trailing the number.

CC50 for N=C(N)Nc1ccc(-n2nc(C(F)(F)F)cc2-c2ccc3c(ccc4ccccc43)c2)cc1 [Compound 71] is 5.72 µM

###

- experimental.system: recombinant PDK-1 (Homo sapiens, UniProt O15530)
- Construct: purchased Upstate (Lake Placid, N.Y.)
- Sequence (O15530 1-556): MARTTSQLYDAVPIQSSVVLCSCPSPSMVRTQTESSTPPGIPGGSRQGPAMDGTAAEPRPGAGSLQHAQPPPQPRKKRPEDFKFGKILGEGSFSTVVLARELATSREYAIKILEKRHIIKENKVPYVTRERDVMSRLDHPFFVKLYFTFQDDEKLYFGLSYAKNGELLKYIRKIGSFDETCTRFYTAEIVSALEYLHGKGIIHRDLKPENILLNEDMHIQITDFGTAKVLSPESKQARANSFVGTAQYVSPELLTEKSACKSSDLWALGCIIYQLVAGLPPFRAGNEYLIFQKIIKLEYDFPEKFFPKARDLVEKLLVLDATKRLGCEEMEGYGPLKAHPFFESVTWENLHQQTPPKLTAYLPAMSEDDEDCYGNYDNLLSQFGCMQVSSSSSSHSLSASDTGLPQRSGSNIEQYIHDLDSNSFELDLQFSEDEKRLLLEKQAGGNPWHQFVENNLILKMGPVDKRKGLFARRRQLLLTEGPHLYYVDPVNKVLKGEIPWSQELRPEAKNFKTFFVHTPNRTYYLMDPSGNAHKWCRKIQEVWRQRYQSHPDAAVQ
- method.description: PDK-1 kinase activity (Upstate kit, cell-free)
- Assay type: biochemical
property.measured: IC50 (µM)
Report the value in µM with no unit label.

IC50 for O/N=C/c1ccc(-n2nc(C(F)(F)F)cc2-c2ccc3c(ccc4ccccc43)c2)cc1 is 25

###

- Tested on: DU-145
- method.description: NCI DTP cell line screen (SRB), Prostate Cancer
- Type: cell-based
- measurement.conditions: read-out: LC50 (the source's name)
property.measured: CC50 (µM)
Report the value in µM with no unit label.

CC50 for N=C(N)Nc1ccc(-n2nc(C(F)(F)F)cc2-c2ccc3c(ccc4ccccc43)c2)cc1 [Compound 71] is 5.37

###

- Tested on: K-562
- method.description: NCI DTP cell line screen (SRB), Leukemia
- Type: cell-based
- measurement.conditions: read-out: LC50 (the source's name)
property.measured: CC50 (µM)
Report the value in µM with no unit label.

CC50 for N=C(N)Nc1ccc(-n2nc(C(F)(F)F)cc2-c2ccc3c(ccc4ccccc43)c2)cc1 is 7.77

###

- System: EKVX
- method.description: NCI DTP cell line screen (SRB), Non-Small Cell Lung Cancer
- Format: cell-based
- measurement.conditions: read-out: LC50 (the source's name)
- Method: Screening of compounds 70 and 71 against several cancer cell lines The human tumor cell lines of the cancer screening panel are grown in RPMI 1640 medium containing 5% fetal bovine serum and 2 mM L-glutamine. […] Following drug addition, the plates are incubated for an additional 48 h at 37° C., 5% CO2, 95% air, and 100% relative humidity. […] Bound stain is subsequently solubilized with 10 mM trizma base, and the absorbance is read on an automated plate reader at a wavelength of 515 nm. […]
property.measured: CC50 (µM)
Report the value in µM with no unit label.

CC50 for N=C(N)Nc1ccc(-n2nc(C(F)(F)F)cc2-c2ccc3c(ccc4ccccc43)c2)cc1 is 4.74
